Reference source for all entries: the supplement of paper PMC9170038

# Tested on: MS2 coat protein
# Assay name: apparent KD of MS2 coat protein; designed switch direction (-1 OFF switch, 1 ON switch): -1; higher = weaker reporter binding
# Assay conditions: Eterna round: R95; input ligand: FMN 200 uM
Recorded apparent KD of MS2 coat protein by entry
Answers without a unit are incomplete; give the number and then its unit.

Record excerpt, results attached:
[[record]]
sequence_content = "GGUUGGCGAGGAUAUACAUGAGGAUCACCCAUGUGUGAGAAAAAAGUGAGGAAGAAAAGUAGAAGGCGCUGACG [salish99_ex3_r3_007] (puzzle: Exclusion 3)"
tested_system = "MS2 coat protein"
result = "30.2 nM"

[[record]]
sequence_content = "GAUUAUGCGAGCUUUAGGGACAUGAGGAUCACCCAUGUUCGUCUUAUUGGUCUGGAUACGCUAACAUACCUAAAUCU [JMF 38] (puzzle: Sensor v3, turn-off variant 1)"
tested_system = "MS2 coat protein"
result = "21.5 nM"

[[record]]
sequence_content = "UCAAGUUUUUUGUUUUUUAACAUGAGGAUCACCCAUGUAUUUUUAUAGUAUGUGUGAAUAAGAUCUCUUUGUCUUAU [JR_SV3TOV1_Sub098] (puzzle: Sensor v3, turn-off variant 1)"
tested_system = "MS2 coat protein"
result = "46.6 nM"

[[record]]
sequence_content = "AAGUACUACAAGCUUAGGGACAUGAGGAUCACCCAUGUUCGUCUUAUUGAUCUAGGUACGCUGACGUACCUAGAUCU [Mat - Sensor v3 - turn-off var 1 - JL Mod - D9] (puzzle: Sensor v3, turn-off variant 1)"
tested_system = "MS2 coat protein"
result = "15.2 nM"

[[record]]
sequence_content = "ACAAGAAUUUUGCUCGUAAAGUAGAAACGCGAGAGCGGGACAUGAGGAUCACCCAUGUAAAGGCAGUUGGUGGAGAU [JR_SV3TOV2_Sub028] (puzzle: Sensor v3, turn-off variant 2)"
tested_system = "MS2 coat protein"
result = "39.7 nM"


Read the next record carefully.
Inquiry: # input sequence: UAUUAGCAAGCAGGAUCCCACAUGAGGAUCACCCAUGUGCUCGUCUUAUAAGGUACUGUGACGAAAGUCACGGUACC [Sensor 3, v1 - 90] (puzzle: Sensor v3, turn-off variant 1) ; wanted: its apparent KD of MS2 coat protein
Reply text: 81.3 nM

###

# Tested on: K4 kissing-loop RNA reporter
# Assay name: apparent KD of K4 kissing-loop reporter; higher = weaker reporter binding
# Assay conditions: Eterna round: R107; input ligand: tryptophan 2.4 mM
// apparent KD of K4 kissing-loop reporter lookup, one value per entry
I only need the number, in µM, no unit after it.

[[record]]
sequence_content = "UGGAGGAGUGAUGUUCCCGAAACAUGAGAUACCAGCGUCACAGUCCGCCCUUGGCAGCUCGGUCCAAUUUGCCUCGCGGGUAAUG [theeternabot_sameState_KL_Theo_A_23]"
tested_system = "K4 kissing-loop RNA reporter"
numeric_value = 0.182


Inquiry: Name the recorded apparent KD of K4 kissing-loop reporter for GUGUAAGUGAUGUUUGCACACACGUCGGAUACCAGAGACUUUAGCCUCCCUUGGCAGCCGCCGGCCAUAAGAGCAAGUCGAUUUA [theeternabot_sameState_KL_Theo_A_20] .
Reply text: 0.176

Inquiry: Query: apparent KD of K4 kissing-loop reporter; subject: AAACGUCGGAAGUGAUGUUGAUGACGUAGUAAGGAUAUUGGACGCGCAAGAAGGUACUGGCAAACUAAGGACAUCCUGGAUAUUC [theeternabot_exclusion_KL_FMN_A_47]
Reply text: 0.254

Inquiry: May I ask what apparent KD of K4 kissing-loop reporter has been recorded for GUUACGCAUGGAAGGAGCGCGAUAAUAUUAAGUGAGUGAUGUUCACAAAGAAAAUAAAUAACGCAGGUAGGUCGCCAUGUGUAAC [Ex Arginine B K4 4] ?
Reply text: 0.0818

Inquiry: Dear colleague, I am looking for the recorded apparent KD of K4 kissing-loop reporter of the following sequence: GGAGUUACCUGGGAUACCAGUCGGAGUCUCAGAGCACAGAGUGAUGUUCUGGGAUGUUUCGGCCCUUGGCAGCUCUGGGACUCCA [#2 Exclusion - Theophylline B Attempt #14 (HarryS)]
Reply text: 0.351

Inquiry: I would be grateful if you could share the reported apparent KD of K4 kissing-loop reporter for UAAUUUAUGUCUUUAAUAUAAUAAUCAGAUACCAGUGAUUUAUGACACCCUUGGCAGCUGUAUAGAGUGAUGUUCUUAUGCUUAA [JR_ExcTheophyA_Sub011] .
Reply text: 0.179

Inquiry: Would you mind telling me what apparent KD of K4 kissing-loop reporter value was observed for GUUACGCAUGGAAGGAGCGCGAUUAAAUUUAGUGAGUGAUGUUCACAAAAUAAAACUAAAACGCAGGUAGGUCGCCAUGUGUAAC [Ex Arginine B K4 2] ?
Reply text: 0.159

Inquiry: // lookup apparent KD of K4 kissing-loop reporter for GUACGCUCCCGAGUGAUGUUCGGUAAUCGCGAGGAUAUCGCUUUUGCGAGAAGGCGCGGAAUGAGGAAACUCGUUCUGAGUGUAC [FMN A 25]
Reply text: 0.233

###

# System: MS2 coat protein
# Assay name: apparent KD of MS2 coat protein; designed switch direction (-1 OFF switch, 1 ON switch): -1; higher = weaker reporter binding
# Assay conditions: Eterna round: R95; input ligand: microRNA oligo, concentration not stated
Outcome label depends on apparent KD of MS2 coat protein relative to 0.07 µM: at/above gives y, below gives n.

// known answers, use as guide
[[record]]
sequence_content = "AAAUUAAGUGUGAGGAUAUGCUGGUCCUUGGAUCAGCAGAAGGCACAUGAGGAUCACCCAUGUAAUAUAUUUAA [Mat - Exclusion 4 - JL Mod - D49] (puzzle: Brourd's mod of Exclusion 4)"
group = "y"

[[record]]
sequence_content = "AAAUACAGGUAAAGAUUCUACAUGAGGAUCACCCAUGUGCUCGUCUUAUAAAGUACUAUCACGAAAGUGAUAGUACA [Sensor 3, v1 - 40] (puzzle: Sensor v3, turn-off variant 1)"
group = "y"

[[record]]
sequence_content = "CUAUCUUGCAAGGAUAUGCAAUUUAUUAUUUAUGCAGAAGGUGCUACAUGAGGAUCACCCAUGUUUCUGGGUUU [JR_E6_Sub046] (puzzle: Exclusion 6)"
group = "y"


Inquiry: State whether the measured apparent KD of MS2 coat protein reaches 0.07 µM, counting equality as reaching it, for AAGAAACGAGGAUAUACAGUUGAGUGAGAGAGGGAAGUGUGACAUGAGGAUCACCCAUGUAGAAGGCGUGAGAG [JR_Exclu2_Sub087] (puzzle: Exclusion 2)
Reply text: n

Inquiry: Confirm if apparent KD of MS2 coat protein reported for the sequence GGUCAAGAACAGAACCGCGCUGCCCUUGACCGCUCAUUUACAUGAGGAUCACCCAUGUUUUUUGCUUGUCUUGUUAC [Qugeon] (puzzle: Sensor v3, turn-off variant 2) is 0.07 µM or above.
Reply text: y

Inquiry: Answer whether apparent KD of MS2 coat protein of UCUUAUUGCAAGGAUAUGCUUUUUAUUUCUUUUGCAGAAGGUGCAACAUGAGGAUCACCCAUGUUUCCGGGUAU [JR_E6_Sub034] (puzzle: Exclusion 6) is greater than or equal to 0.07 µM.
Reply text: n

Inquiry: Given the entry CUGAUGUGAGGAUAUCUAAAAGAAACUGGGCAAAUACCCAGAGAGAAGGCACAUGAGGAUCACCCAUGUAACGA [Anedin] (puzzle: Exclusion 4) , answer whether its apparent KD of MS2 coat protein meets or surpasses 0.07 µM.
Reply text: n

Inquiry: Reported apparent KD of MS2 coat protein at or above 0.07 µM? AUGGACGCAGGAUAUACAUGAGGAUCACCCAUGUGAGGUUGGUAAGUAGGAAGUGAAGGUAGAAGGGCGAGAGA [JR_Exclu3_Sub097] (puzzle: Exclusion 3)
Reply text: y

Inquiry: Would you say GAUUAUGCGAGCUUUAGGGACAUGAGGAUCACCCAUGUUCGUCUUAUUGAUCUAAGUGCACUAACAUACCUAAAUCU [JMF 29] (puzzle: Sensor v3, turn-off variant 1) shows apparent KD of MS2 coat protein at minimum 0.07 µM?
Reply text: n

Inquiry: Test whether the sequence GGCUAGUGAGGAUAUACGUGCAGUCCUCAGUCGCCAGUCGGACAUGAGGAUCACCCAUGUAGAAGGUAUCGGCA [Beesraat] (puzzle: Exclusion 2) records apparent KD of MS2 coat protein of 0.07 µM or higher.
Reply text: n

###

# Test system: K4 kissing-loop RNA reporter;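 also: bound reporter read as fluorescence of individual clusters on recovered sequencing chips by microscopy, with normalized cluster intensities fitted with a binding model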
# Assay name: apparent KD of K4 kissing-loop reporter; higher = weaker reporter binding
# Assay conditions: Eterna round: R107; input ligand: FMN 200 uM
Entries and their apparent KD of K4 kissing-loop reporter
Output spec: scalar in nM, unitless text.

[[record]]
sequence_content = "CGACACUCAGCGGCCGCCACUGAGCUAUAUUUUGCAGGUGCCCGAGUAAGUGAUGUUUACUUCGUCAGGACCGGGCUGGUUUCAA [theeternabot_sameState_KL_Trp_B_20]"
assay_metric = "apparent KD of K4 kissing-loop reporter"
numeric_value = 514

[[record]]
sequence_content = "AAACUUGCAGUGAUGUUGCAAGUAGGUGAUACCAGCAUCGAAAGAUGCCCUUGGCAGCACCAAAACAUCACUUAGGUAUCACCAA [(H1)-(H2)-(T1)-(T2)-(H)'-(T)'_Design3]"
assay_metric = "apparent KD of K4 kissing-loop reporter"
numeric_value = 191

[[record]]
sequence_content = "CACUUACGUAGUGAUGUUACGAUCUCUGAUACCAGACAACUCUAAGUCCCUUGGCAGCAGUCAUUUUGCUUAUAAUUUACUCAAA [JR_ExcTheophyA_Sub015]"
assay_metric = "apparent KD of K4 kissing-loop reporter"
numeric_value = 657

[[record]]
sequence_content = "AUUAAUUUCAGAGGAUAUCGUGAUUUUAUUUAAUUUAUUCAUUUGUGCAGUGAUGUUGCUAAUAUUCGAGAAGGCUGAUUUAUAA [whbob_Ex_FMNB__2th224]"
assay_metric = "apparent KD of K4 kissing-loop reporter"
numeric_value = 107


Inquiry: Need apparent KD of K4 kissing-loop reporter, item UGUCUGAUGGAAACAUCGGACUUUACUGAUACCAGUAUCGAUAGAUACCCUUGGCAGCAGAAUCAGUAAUAACGAGUGAUGUUCG [Ex Theophylline A K4 3]
Reply text: 347

Inquiry: Item under review: ACGUAUAUCAGAGGAUAUCGUAUUAAUAUUUUAUCUAUAUAGUUUUGCAGUGAUGUUGCAAUUAUUCGAGAAGGCUGAUUUACGA [JR_SSFMNB_Sub024] . Reported apparent KD of K4 kissing-loop reporter?
Reply text: 86.1

Inquiry: I am curious: what apparent KD of K4 kissing-loop reporter value has been reported for AGAAACUUGUAUGUCGAGUGUGCGCGCGAUACCAGCCAAAUGGAUGGCCCUUGGCAGCGCUGCGAGUGAUGUUCGCCCGCUUGAC [#18 K4 Theophylline A Exclusion] ?
Reply text: 210

Inquiry: Data request, read-out apparent KD of K4 kissing-loop reporter, for AGACUACCACACUGUCAAUAGACAGUGAGCUAGGAUAUGCUGAUAAGCAGAAGGAGUGAUGUUCCUUGGUAGUCAAUAAAAUAAU [FmnAX 13 G29+U67]
Reply text: 366

Inquiry: What does the data say about its apparent KD of K4 kissing-loop reporter? Entry: UUGGUUGUCGUAGGAUAUGUAGGAUAUUCUAAAAUAUGAAGUGAUGUUUCUAUAAUAAGAAGAAGGACAGAAGGACGAUAACCAU [FmnBS 2 - Salish transfer #DoubleAptamer]
Reply text: 84.7
